- ASSAYED TARGET: human ABCB4 (Homo sapiens, UniProt P21439)
- Construct: made in house; host or cells: Pichia pastoris (chromosomally integrated)
- Sequence (P21439 1-1279 isoform P21439-2): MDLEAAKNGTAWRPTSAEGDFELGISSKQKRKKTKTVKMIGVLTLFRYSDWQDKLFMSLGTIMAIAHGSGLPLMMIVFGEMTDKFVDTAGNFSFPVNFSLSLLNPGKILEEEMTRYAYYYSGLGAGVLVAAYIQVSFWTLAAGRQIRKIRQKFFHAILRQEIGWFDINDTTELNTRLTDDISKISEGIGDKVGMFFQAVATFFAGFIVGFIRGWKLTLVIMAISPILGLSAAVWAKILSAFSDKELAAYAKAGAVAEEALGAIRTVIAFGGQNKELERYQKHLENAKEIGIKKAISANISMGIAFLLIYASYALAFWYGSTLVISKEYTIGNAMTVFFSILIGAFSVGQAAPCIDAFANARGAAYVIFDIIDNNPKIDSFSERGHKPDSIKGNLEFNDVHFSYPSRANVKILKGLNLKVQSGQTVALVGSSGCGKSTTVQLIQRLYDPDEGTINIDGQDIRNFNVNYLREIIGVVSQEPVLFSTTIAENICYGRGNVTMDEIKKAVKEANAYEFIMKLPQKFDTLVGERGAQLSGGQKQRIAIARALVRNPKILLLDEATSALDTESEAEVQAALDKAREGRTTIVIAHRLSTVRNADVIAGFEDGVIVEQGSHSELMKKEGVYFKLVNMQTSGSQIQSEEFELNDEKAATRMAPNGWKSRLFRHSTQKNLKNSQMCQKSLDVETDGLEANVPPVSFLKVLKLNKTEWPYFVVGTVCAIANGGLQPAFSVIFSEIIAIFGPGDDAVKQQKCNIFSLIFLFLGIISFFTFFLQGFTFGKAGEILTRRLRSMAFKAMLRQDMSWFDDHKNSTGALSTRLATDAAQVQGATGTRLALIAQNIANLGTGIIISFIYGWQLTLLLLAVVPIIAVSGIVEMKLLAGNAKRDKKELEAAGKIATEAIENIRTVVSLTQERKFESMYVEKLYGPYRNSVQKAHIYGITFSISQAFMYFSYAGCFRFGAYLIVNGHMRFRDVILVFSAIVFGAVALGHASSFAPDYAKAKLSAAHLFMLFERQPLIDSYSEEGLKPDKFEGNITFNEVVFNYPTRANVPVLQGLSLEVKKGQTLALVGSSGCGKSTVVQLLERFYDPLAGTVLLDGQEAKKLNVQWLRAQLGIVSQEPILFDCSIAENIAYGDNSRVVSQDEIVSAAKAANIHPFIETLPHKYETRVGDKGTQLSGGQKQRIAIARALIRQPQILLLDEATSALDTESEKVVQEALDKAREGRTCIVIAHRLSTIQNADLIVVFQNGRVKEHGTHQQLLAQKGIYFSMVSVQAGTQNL
- PROTOCOL NOTES: ATP hydrolysis (malachite green) of detergent-solubilized, purified ABCB4: modulation of basal ATPase activity
- Format: biochemical
- STATED CONDITIONS: Hill coefficient of allosteric sigmoidal fit of ATPase stimulation
Overview of reported Slope across a group of molecules:

Worked set:
> print(dat)
                                smiles.code  measured.attribute   reported
1  C[C@H](CCC(=O)NCCS(=O)(=O)O)[C@H]1CC[C@H]2[C@@H]3[C@H](O)C[C@@H]4C[C@H](O)CC[C@]4(C)[C@H]3CC[C@]12C               Slope  2.6 ± 0.4
2  C[C@H](CCC(=O)NCCS(=O)(=O)O)[C@H]1CC[C@H]2[C@@H]3[C@H](O)C[C@@H]4C[C@H](O)CC[C@]4(C)[C@H]3C[C@H](O)[C@]12C               Slope  2.6 ± 0.5
3  C[C@H](CC(=O)O)[C@H]1CC[C@H]2[C@@H]3[C@@H](O)C[C@@H]4C[C@H](O)CC[C@]4(C)[C@H]3CC[C@]12C               Slope  6.3 ± 1.3

# context switch: different molecule, same Slope
# input # get_value(readout='Slope', item= "C[C@H](CCC(=O)O)[C@H]1CC[C@H]2[C@@H]3[C@@H](O)C[C@@H]4C[C@H](O)CC[C@]4(C)[C@H]3CC[C@]12C" )
# output 4.6 ± 1.3

###

activity at 1000 µM listing for selected compounds.
- ASSAYED TARGET: human ABCB4 (Homo sapiens)
- Construct: made in house; host or cells: Pichia pastoris (chromosomally integrated)
- PROTOCOL NOTES: ATP hydrolysis (malachite green) of purified ABCB4 in the presence of 300 μM DOPC (with or without cholesterol)
- Assay type: biochemical
- STATED CONDITIONS: 1,000 μM bile acid/detergent/BAM + 300 μM DOPC; DOPC alone set to 100%; read-out: Relative ATPase activity in the presence of 300 μM DOPC

# input Which activity at 1000 µM value belongs to C[C@H](CCC(=O)O)[C@H]1CC[C@H]2[C@@H]3CC[C@@H]4C[C@H](O)CC[C@]4(C)[C@H]3C[C@H](O)[C@]12C [DCA, deoxycholic acid] ?
# output 100%

# input Same question, C[C@H](CCC(=O)O)[C@H]1CC[C@H]2[C@@H]3[C@H](O)C[C@@H]4C[C@H](O)CC[C@]4(C)[C@H]3CC[C@]12C [CDCA, chenodeoxycholic acid] this time
# output 89.7%

# input Try this compound next: C[C@H](CCC(=O)O)[C@H]1CC[C@H]2[C@@H]3[C@H](O)C[C@@H]4C[C@H](O)CC[C@]4(C)[C@H]3C[C@H](O)[C@]12C [CA, cholic acid]
# output 117%

# input Item: C[C@H](CCC(=O)NCC(=O)O)[C@H]1CC[C@H]2[C@@H]3[C@@H](O)C[C@@H]4C[C@H](O)CC[C@]4(C)[C@H]3CC[C@]12C [GUDCA]
# output 111%

# input Next compound up: C[C@H](CCC(=O)NCCS(=O)(=O)O)[C@H]1CC[C@H]2[C@@H]3CC[C@@H]4C[C@H](O)CC[C@]4(C)[C@H]3CC[C@]12C [TLCA, taurolithocholic acid]
# output 34.8%

# input Same lookup for C[C@H](CCC(=O)O)[C@H]1CC[C@H]2[C@@H]3[C@@H](O)C[C@@H]4C[C@H](O)CC[C@]4(C)[C@H]3CC[C@]12C [UDCA, Ursodeoxycholic acid] , please.
# output 115%

###

# Concentration at which maximal stimulation (plateau) of ATPase activity is reached per record follows
- ASSAYED TARGET: human ABCB4 (Homo sapiens, UniProt P21439)
- Construct: made in house; host or cells: Pichia pastoris (chromosomally integrated)
- PROTOCOL NOTES: ATP hydrolysis (malachite green) of detergent-solubilized, purified ABCB4: modulation of basal ATPase activity
- Format: biochemical
- STATED CONDITIONS: basal ATPase activity, 0-1,000 μM
Answer in µM, number only, no unit symbol.

Solved entries:
COMPOUND	ASSAYED TARGET	REPORTED
C[C@H](CCC(=O)NCCC[N+](C)(C)CCCS(=O)(=O)[O-])[C@H]1CC[C@H]2[C@@H]3[C@H](O)C[C@@H]4C[C@H](O)CC[C@]4(C)[C@H]3C[C@H](O)[C@]12C	human ABCB4 (Homo sapiens, UniProt P21439)	300
C[C@H](CCC(=O)NCCC[N+](C)(C)CC(O)CS(=O)(=O)[O-])[C@H]1CC[C@H]2[C@@H]3[C@H](O)C[C@@H]4C[C@H](O)CC[C@]4(C)[C@H]3C[C@H](O)[C@]12C (stereo partly shown)	human ABCB4 (Homo sapiens, UniProt P21439)	300

Now examine the next entry.
# input Consider the compound "C[C@H](CCC(=O)O)[C@H]1CC[C@H]2[C@@H]3CC[C@@H]4C[C@H](O)CC[C@]4(C)[C@H]3C[C@H](O)[C@]12C" and give its measured Concentration at which maximal stimulation (plateau) of ATPase activity is reached.
# output 300

###

- ASSAYED TARGET: human ABCB4 (Homo sapiens)
- Construct: made in house; host or cells: Pichia pastoris (chromosomally integrated)
- PROTOCOL NOTES: ATP hydrolysis (malachite green) of detergent-solubilized, purified ABCB4: modulation of basal ATPase activity
- Type: biochemical
- STATED CONDITIONS: stimulation of basal ATPase activity, allosteric sigmoidal fit; 0-1,000 μM; read-out: EC50
MEASURED ATTRIBUTE: EC50 (µM)
Write the answer as a number in µM, unit excluded.

Example compounds with recorded EC50:
COMPOUND	ASSAYED TARGET	MEASURED ATTRIBUTE	REPORTED
C[C@H](CCC(=O)O)[C@H]1CC[C@H]2[C@@H]3[C@H](O)C[C@@H]4C[C@H](O)CC[C@]4(C)[C@H]3C[C@H](O)[C@]12C	human ABCB4 (Homo sapiens)	EC50	390
C[C@H](CCC(=O)NCC(=O)O)[C@H]1CC[C@H]2[C@@H]3[C@@H](O)C[C@@H]4C[C@H](O)CC[C@]4(C)[C@H]3CC[C@]12C	human ABCB4 (Homo sapiens)	EC50	393
C[C@H](CCC(=O)O)[C@H]1CC[C@H]2[C@@H]3[C@@H](O)C[C@@H]4C[C@H](O)CC[C@]4(C)[C@H]3CC[C@]12C	human ABCB4 (Homo sapiens)	EC50	470
C[C@H](CCC(=O)NCCS(=O)(=O)O)[C@H]1CC[C@H]2[C@@H]3[C@@H](O)C[C@@H]4C[C@H](O)CC[C@]4(C)[C@H]3CC[C@]12C	human ABCB4 (Homo sapiens)	EC50	267
C[C@H](CCC(=O)NCCC[N+](C)(C)CC(O)CS(=O)(=O)[O-])[C@H]1CC[C@H]2[C@@H]3[C@H](O)C[C@@H]4C[C@H](O)CC[C@]4(C)[C@H]3C[C@H](O)[C@]12C (some centres unmarked)	human ABCB4 (Homo sapiens)	EC50	125
C[C@H](CCC(=O)NCC(=O)O)[C@H]1CC[C@H]2[C@@H]3[C@H](O)C[C@@H]4C[C@H](O)CC[C@]4(C)[C@H]3C[C@H](O)[C@]12C	human ABCB4 (Homo sapiens)	EC50	177
C[C@H](CCC(=O)NCC(=O)O)[C@H]1CC[C@H]2[C@@H]3CC[C@@H]4C[C@H](O)CC[C@]4(C)[C@H]3C[C@H](O)[C@]12C	human ABCB4 (Homo sapiens)	EC50	47.9
C[C@H](CCC(=O)O)[C@H]1CC[C@H]2[C@@H]3[C@H](O)C[C@@H]4C[C@H](O)CC[C@]4(C)[C@H]3CC[C@]12C	human ABCB4 (Homo sapiens)	EC50	308
C[C@H](CC(=O)O)[C@H]1CC[C@H]2[C@@H]3[C@@H](O)C[C@@H]4C[C@H](O)CC[C@]4(C)[C@H]3CC[C@]12C	human ABCB4 (Homo sapiens)	EC50	476
C[C@H](CCC(=O)NCC(=O)O)[C@H]1CC[C@H]2[C@@H]3[C@H](O)C[C@@H]4C[C@H](O)CC[C@]4(C)[C@H]3CC[C@]12C	human ABCB4 (Homo sapiens)	EC50	77.8

Continue with the next compound.
# input Fill in: EC50 of "C[C@H](CCC(=O)NCCS(=O)(=O)O)[C@H]1CC[C@H]2[C@@H]3[C@H](O)C[C@@H]4C[C@H](O)CC[C@]4(C)[C@H]3CC[C@]12C" is ___
# output 169

###

- ASSAYED TARGET: human ABCB4 (Homo sapiens)
- Construct: made in house; host or cells: Pichia pastoris (chromosomally integrated)
- PROTOCOL NOTES: ATP hydrolysis (malachite green) of detergent-solubilized, purified ABCB4: modulation of basal ATPase activity
- Type: biochemical
- STATED CONDITIONS: vmax of allosteric sigmoidal fit (Equation 1); basal ABCB4 ATPase activity set to 0%; 0-1,000 μM; read-out: Max. Stimulation (%)
Assign class by Emax: not lower than 300% means met; lower than 300% means not met.

> print(dat)
                                smiles.code    group
1  C[C@H](CCC(=O)NCC(=O)O)[C@H]1CC[C@H]2[C@@H]3[C@H](O)C[C@@H]4C[C@H](O)CC[C@]4(C)[C@H]3CC[C@]12C  not met
2  C[C@H](CCC(=O)NCC(=O)O)[C@H]1CC[C@H]2[C@@H]3[C@@H](O)C[C@@H]4C[C@H](O)CC[C@]4(C)[C@H]3CC[C@]12C  not met
3  C[C@H](CCC(=O)O)[C@H]1CC[C@H]2[C@@H]3[C@H](O)C[C@@H]4C[C@H](O)CC[C@]4(C)[C@H]3CC[C@]12C  not met
4  C[C@H](CCC(=O)NCC(=O)O)[C@H]1CC[C@H]2[C@@H]3[C@H](O)C[C@@H]4C[C@H](O)CC[C@]4(C)[C@H]3C[C@H](O)[C@]12C      met
5  C[C@H](CCC(=O)NCC(=O)O)[C@H]1CC[C@H]2[C@@H]3CC[C@@H]4C[C@H](O)CC[C@]4(C)[C@H]3C[C@H](O)[C@]12C  not met

Now look at this entry.
# input Would you say "C[C@H](CCC(=O)O)[C@H]1CC[C@H]2[C@@H]3[C@H](O)C[C@@H]4C[C@H](O)CC[C@]4(C)[C@H]3C[C@H](O)[C@]12C" shows Emax at minimum 300%?
# output met

Source of measurements: paper PMC8233136
